Each entry below carries its recorded growth inhibition.
protocol notes: NCI Yeast Anticancer Drug Screen. Data for the rad50EPP+ strain (AID 151);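 further: 0% = growth of vehicle-treated control cultures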
condition set: S. cerevisiae rad50 mutant strain, at 11.0 µM, hits give high values
Compounds without any hit were thinned out: in the full panel of roughly 79,000, 15% have a hit.
Give the number; % is assumed, so skip it.

Examples with their reported growth inhibition follow.
Challenge: Report growth inhibition for COc1cc([C@@H]2c3cc4c(cc3[C@@H](OC3OC5COC(C)OC5C(O)C3O)[C@H]3COC(=O)[C@H]23)OCO4)cc(OC)c1O (stereo partly specified) please.
Response given: 2

Challenge: Reported growth inhibition, compound CCCCC(=O)c1c(O)nc2sccn2c1=O : ____
Response given: 58

New cases:
Challenge: # input compound: CCN(CC)N=Nc1c(C(N)=O)n[nH]c1C ; wanted: its growth inhibition
Response given: 5

Challenge: What measured growth inhibition goes with Cc1ccc(S(=O)(=O)N(C)c2ccc(Cl)cc2C2=NCCc3ccccc32)cc1 ?
Response given: -14

Challenge: What value of growth inhibition has been recorded for this entry: Nc1nc(N)c2cc(Sc3ccc4ccccc4c3)ccc2n1
Response given: 31

Cited source: PubChem BioAssay (NCI)
